The values you see were collected from the supplement of paper PMC10307832.

Tested on: PC-3 [JPC-3]
Assay: relative viability (nuclei count vs DMSO), 5 days (fraction); higher = more cells survive
Conditions: first compound 0.08 µM
endpoint: relative viability
Reply: number alone, nothing else.

Examples from the recorded data:
Ask | # return recorded relative viability for entry COc1nc(C)cnc1NS(=O)(=O)c1cccnc1-c1ccc(-c2nnco2)cc1 [Zibotentan] + Cc1cc(Nc2cc(N3CCN(C)CC3)nc(Sc3ccc(NC(=O)C4CC4)cc3)n2)n[nH]1 [Tozasertib] (partner 0.1 µM)
Reply | 0.869

Ask | # return recorded relative viability for entry COc1nc(C)cnc1NS(=O)(=O)c1cccnc1-c1ccc(-c2nnco2)cc1 [Zibotentan] + CS(=O)(=O)CCNCc1ccc(-c2ccc3ncnc(Nc4ccc(OCc5cccc(F)c5)c(Cl)c4)c3c2)o1 [Lapatinib] (partner 2 µM)
Reply | 0.444

Next compound, relative viability to be filled in.
Ask | # return recorded relative viability for entry COc1nc(C)cnc1NS(=O)(=O)c1cccnc1-c1ccc(-c2nnco2)cc1 [Zibotentan] + C[C@]1(O)C[C@@H](c2nc(-c3ccc4ccc(-c5ccccc5)nc4c3)c3c(N)nccn32)C1 [Linsitinib] (partner 1 µM)
Reply | 0.931
